# test name: AUC in rat at 3 mg/kg, po
# Assay type: ADME, organism-based
# Design: dose 3 mg/kg, route oral
# condition summary: plasma
quantity: AUC (ng·h/mL)
Answers are plain numbers, in ng·h/mL.

Q. What value of AUC has been reported for the following compound? Cc1cnc2c(c1)CN(CCn1ncc3c1nc(N)n1nc(-c4ccco4)nc31)CC2
A. 7980

# credit: ChEMBL document CHEMBL1155013
